For each entry below, report its Av. IC50 (nM) Hu IL-12, PHA blast assay value.
- SYSTEM: T1, recombinant purified human IL-12 p70 (human, UniProt P29459 23-219)
- T1 sequence 1: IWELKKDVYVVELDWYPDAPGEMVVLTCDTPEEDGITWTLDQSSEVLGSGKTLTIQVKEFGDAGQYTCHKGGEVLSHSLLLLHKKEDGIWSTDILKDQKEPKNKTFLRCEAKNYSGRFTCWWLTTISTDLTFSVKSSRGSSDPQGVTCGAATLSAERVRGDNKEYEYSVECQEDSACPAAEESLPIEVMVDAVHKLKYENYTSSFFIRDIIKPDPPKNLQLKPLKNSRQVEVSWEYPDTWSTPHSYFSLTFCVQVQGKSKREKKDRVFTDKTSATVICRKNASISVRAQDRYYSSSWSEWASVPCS
- T1 sequence 2: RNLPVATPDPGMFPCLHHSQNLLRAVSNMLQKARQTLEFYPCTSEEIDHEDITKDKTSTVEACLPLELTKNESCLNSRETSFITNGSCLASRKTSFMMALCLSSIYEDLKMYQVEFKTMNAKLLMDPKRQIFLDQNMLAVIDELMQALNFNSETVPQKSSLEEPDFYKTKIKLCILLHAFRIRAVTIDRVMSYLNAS
- TEST_SUMMARY: cell-based or functional assay
Kindly write the number and append the unit.

Field Av. IC50 (nM) Hu IL-12, PHA blast assay (entry CDR grafted anti IL-12p40 antibody 1A6.6 (antibody, human IgG1, kappa, L234A L235A, V domains shown, Full-length CDR-grafted antibody, COS cells) VH: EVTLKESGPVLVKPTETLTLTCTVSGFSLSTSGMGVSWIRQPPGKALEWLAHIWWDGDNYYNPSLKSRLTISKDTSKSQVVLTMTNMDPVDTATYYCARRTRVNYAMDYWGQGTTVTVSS VL: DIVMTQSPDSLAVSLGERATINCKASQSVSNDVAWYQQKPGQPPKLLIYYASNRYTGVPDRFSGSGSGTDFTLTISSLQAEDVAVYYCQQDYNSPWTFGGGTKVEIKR ) reads 0.59 nM

Field Av. IC50 (nM) Hu IL-12, PHA blast assay (entry CDR grafted anti IL-12p40 antibody 1D4.1 (antibody, human IgG1, kappa, L234A L235A, V domains shown, Full-length CDR-grafted antibody, COS cells) VH: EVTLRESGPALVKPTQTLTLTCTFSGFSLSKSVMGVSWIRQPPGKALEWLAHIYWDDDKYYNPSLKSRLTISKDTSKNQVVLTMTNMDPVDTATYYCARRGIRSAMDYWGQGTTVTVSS VL: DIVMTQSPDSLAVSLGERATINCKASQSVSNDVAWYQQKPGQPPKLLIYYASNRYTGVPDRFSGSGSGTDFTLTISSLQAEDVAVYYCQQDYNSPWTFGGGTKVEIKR ) reads 0.47 nM

Field Av. IC50 (nM) Hu IL-12, PHA blast assay (entry CDR grafted anti IL-12p40 antibody 1D4.2 (antibody, human IgG1, kappa, L234A L235A, V domains shown, Full-length CDR-grafted antibody, COS cells) VH: EVTLKESGPVLVKPTETLTLTCTVSGFSLSKSVMGVSWIRQPPGKALEWLAHIYWDDDKYYNPSLKSRLTISKDTSKSQVVLTMTNMDPVDTATYYCARRGIRSAMDYWGQGTTVTVSS VL: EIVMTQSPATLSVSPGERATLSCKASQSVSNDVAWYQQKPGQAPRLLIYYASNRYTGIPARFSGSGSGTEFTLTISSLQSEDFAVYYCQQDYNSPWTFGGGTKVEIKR ) reads 3 nM

Field Av. IC50 (nM) Hu IL-12, PHA blast assay (entry CDR grafted anti IL-12p40 antibody 3G7.2 (antibody, human IgG1, kappa, L234A L235A, V domains shown, Full-length CDR-grafted antibody, COS cells) VH: EVQLVQSGAEVKKPGASVKVSCKASGYTFTDYWIEWVRQAPGQGLEWMGGFSHGSGSTNYNEKFKGRVTMTTDTSTSTAYMELRSLRSDDTAVYYCARRRFRGMDYWGQGTTVTVSS VL: EIVMTQSPATLSVSPGERATLSCKASQSVSNDVAWYQQKPGQAPRLLIYYASNRYTGIPARFSGSGSGTEFTLTISSLQSEDFAVYYCQQDYSSPWSFGGGTKVEIKR ) reads 0.24 nM

Field Av. IC50 (nM) Hu IL-12, PHA blast assay (entry CDR grafted anti IL-12p40 antibody 8E1.1 (antibody, human IgG1, kappa, L234A L235A, V domains shown, Full-length CDR-grafted antibody, COS cells) VH: EVQLVESGGGLVQPGGSLRLSCAASGFTFSDYGMVWVRQAPGKGLEWVGSISSGSSNIYYADTVKGRFTISRDDSKNSLYLQMNSLKTEDTAVYYCARNPYWGQGTTVTVSS VL: DIQMTQSPSSLSASVGDRVTITCKASQNVGTNVAWYQQKPEKAPKSLIYSASHRYSGVPSRFSGSGSGTDFTLTISSLQPEDFATYYCQQYNSYPLTFGGGTKVEIKR ) reads 2.8 nM
